Reported values of γ-GCS induction for individual entries
- Test system: γ-GCS
- measurement protocol: Nrf2 target gene induction in MDA-MB-435 cells, qPCR: γ-GCS
- Assay type: cell-based, human
- condition summary: 160 nM, 16 hours

Recorded results for 2 compounds are shown here.
chemical string: CC1(C)CC[C@]2(NS(C)(=O)=O)CC[C@]3(C)[C@H](C(=O)C=C4[C@@]5(C)C=C(C#N)C(=O)C(C)(C)[C@@H]5CC[C@]43C)[C@@H]2C1
measured result: 64% of induction observed for RTA 402

chemical string: CC1(C)CC[C@]2(NS(=O)(=O)C3CC3)CC[C@]3(C)[C@H](C(=O)C=C4[C@@]5(C)C=C(C#N)C(=O)C(C)(C)[C@@H]5CC[C@]43C)[C@@H]2C1
measured result: 36% of induction observed for RTA 402

Challenge: Answer with reported γ-GCS induction of CCS(=O)(=O)N[C@]12CCC(C)(C)C[C@H]1[C@H]1C(=O)C=C3[C@@]4(C)C=C(C#N)C(=O)C(C)(C)[C@@H]4CC[C@@]3(C)[C@]1(C)CC2
Response given: 55% of induction observed for RTA 402
